Test system: K-562 leukemia
Test description: NCI tumour cell line growth inhibition, 48 h
compounds and their reported TGI
Measurement kind: TGI

- N#CC1(c2nc3ccccc3o2)C(=O)C(=O)N(c2ccc(Cl)c(Cl)c2)C(=O)C1=O: > 100 µM
- Cc1cc(S(N)(=O)=O)c(S/C(=N\Nc2ccc([N+](=O)[O-])cc2)c2ccc(Cl)cc2)cc1Cl: > 100 µM
- O=C(O)c1ccc(NS(=O)(=O)c2cccc3cccnc23)cc1: > 100 µM
- CSCCCNC(=O)c1csc([C@@H](CSC)NC(=O)CCNC(=O)[C@@H](NC(=O)OCC(Br)(Br)Br)C(C)O)n1 (some centres not stated): > 100 µM
- N#CSCC1CC(O)(c2ccccc2)C(c2ccccc2)C(c2ccc(F)cc2)O1 (configuration not stated): 5.97 µM
- CCOC(=O)C1(Cc2ccccc2)CCN(C(=O)c2ccccc2)C2C1C2(Cl)Cl (configuration not stated): > 100 µM
- COC(=O)c1ccc(NCC2=CC(=O)c3ccccc3C2=O)cc1: 32.2 µM
- CNS(=O)(=O)NN(C)S(=O)(=O)c1ccc(Br)cc1: > 100 µM
- Cc1nn2c(/C=C3/C(=O)Nc4ccccc43)c(-c3ccc(Cl)cc3)nc2s1: > 50 µM
- Cc1cccc(C)c1NC(=O)C(=O)CC(=O)CO: > 100 µM
- CCS(=O)(=O)c1ccc(OC)c(Nc2nccc(N(C)c3ccc4c(C)[nH]nc4c3)n2)c1: 16.8 µM
- CN(/N=N/c1nc(OCc2ccccc2)c2[nH]cnc2n1)C(=O)N(C)/N=N/c1nc(OCc2ccccc2)c2[nH]cnc2n1: > 100 µM

* * *

System: SNB-75 CNS
Test description: NCI tumour cell line growth inhibition, 48 h
Measurement kind: TGI (µM)

* C/C=C/[C@@H]1O[C@H](CC#C[Si](C)(C)C)[C@@]2(C=O)C(C)=CC[C@H](C(C)C)[C@@H]12 | 54.1
* CC(C)(C)C(=O)C(c1ccc(-c2cscn2)cc1)c1ccc(-c2cscn2)cc1 | 25.6
* C=C(CN1CCN(c2ccccc2F)CC1)c1ccc(C(=O)Nc2ccccc2N)cc1 | 8.14

* * *

Tested on: SK-OV-3 ovarian
Test description: NCI tumour cell line growth inhibition, 48 h
Recorded TGI by entry
Measurement kind: TGI

* O=C(c1ccc(Cl)cc1)N(C(=S)N1CCN(c2ccccc2)CC1)c1ccccc1 | > 100 µM
* CSc1nc(-c2cc3c(c(SC)n2)CCC3)cc2c1CCC2 | > 100 µM
* N#CSCC1CC(O)(c2ccccc2)C(c2ccccc2)C(c2ccc(F)cc2)O1 (stereo unspecified) | > 90.6 µM
* C#CCSc1cnc2ccccc2c1Sc1c[nH]c2ccccc2c1=O | > 100 µM
* O=C(/C(Cl)=C/c1ccccc1)c1ccccc1 | 39.8 µM
* CCCCCC(/C=N/NC(N)=S)C(O)(C(F)(F)F)C(F)(F)F (stereo unspecified) | > 10 µM
* CCc1oc2ccccc2c1C(=O)c1cc(Br)c(O)c(Br)c1 | > 100 µM
* CC1=NN(C(=O)CC(=O)Nc2cccc(Cl)c2)C(=O)C1N=Nc1ccc(S(=O)(=O)c2ccc(N=NC3C(=O)N(C(=O)CC(=O)Nc4cccc(Cl)c4)N=C3C)cc2)cc1 (stereo unspecified) | > 100 µM
* COc1ncc(C#CC(=O)c2ccccc2OC)c(OC)n1 | > 60.4 µM
* COc1ccc(C(=O)/C=C/c2cc(C(=O)c3cc(OC)c(OC)c(OC)c3)ccc2OC)cc1 | > 100 µM
* Cc1cc(-c2nc3ccc(O)cc3s2)ccc1N | > 100 µM

* * *

Tested on: COLO 205 colon
Test description: NCI tumour cell line growth inhibition, 48 h
Measurement kind: TGI

- CCOC(=O)NC(N(C)C(C(C)C)P(=O)(OCC)OCC)(C(F)(F)F)C(F)(F)F (configuration not stated): > 100 µM
- O=C1CNc2cc(N3CCN(c4cccc(C(F)(F)F)c4)CC3)ccc2N1: > 91.7 µM
- CC1(C)OC2CN(C(=O)OCc3ccccc3)C(CO)C2O1 (configuration not stated): > 100 µM
- COc1ccc(C2=C(c3cn(C)c4ccccc34)C(=O)NC2=O)cc1OC: > 20.3 µM
- Cc1ccc(NC2=C(Sc3ccc(Cl)cc3)C(=O)N(Cc3ccccc3)C2=O)cc1Cl: > 100 µM
- CCCCC(=O)[O-].N.N.N.N.N.[Co+3].[O-][Cl+3]([O-])([O-])[O-]: > 100 µM
- O=C(N/N=C/c1ccc(O)cc1O)c1ccc(Nc2ccnc(C(F)(F)F)c2)cc1: > 100 µM

* * *

Tested on: NCI-H226 lung
Test description: NCI tumour cell line growth inhibition, 48 h
Measurement kind: TGI

* O=S(=O)(NC(c1ccccc1)(c1cc2ccccc2[nH]1)c1cc2ccccc2n1S(=O)(=O)c1ccccc1)c1ccccc1 (stereo not drawn) | > 100 µM
* C=C1CC(CNc2cc(Cl)nc(N)n2)C1 | > 100 µM
* CCOC(=O)/C=C/[C@H](O[Si](c1ccccc1)(c1ccccc1)c1ccccc1)C(C)(C)C | > 31.6 µM

* * *

System: NCI-H460 lung
Test description: NCI tumour cell line growth inhibition, 48 h
*1 amine or outer side, *2 acyl side, *3 side chain or, on linkers, in order; H or OH if unused. Where a SMILES comes first, the peptide text is derived from it. Bridges are numbered along the chain shown (N, C = ends). [ ]: non-standard residue; d: D form. The star is where a group is joined. Phe(3-Me) = Cc1cccc(C[C@H](N)C(=O)O)c1; NH(4-Cl-2-F-phenyl) = Fc1cc(Cl)ccc1N*; Pro(4R-Me) = C[C@H]1CN[C@H](C(=O)O)C1; Hyp = O=C(O)[C@@H]1C[C@@H](O)CN1; aThr = C[C@H](O)[C@H](N)C(=O)O; Pip = O=C(O)[C@@H]1CCCCN1; CO = O=C([*:1])[*:2]
Property: TGI; scope: individual compounds
Measurement kind: TGI

- COC(=O)c1cc(C)ccc1CC(Cc1ccccc1C)C(=O)OC (configuration not stated): > 100 µM
- Cc1nn2c(/C=C3/C(=O)Nc4ccccc43)c(-c3ccc(Cl)cc3)nc2s1: > 50 µM
- CN(C)CCCNC(=O)CNC(=O)c1cc(NC(=O)c2cc(NC(=O)c3cc(NC(=O)CCNC(=O)c4cc(NC(=O)c5cc(NC(=O)c6nccn6C)cn5C)cn4C)cn3C)cn2C)cn1C: > 100 µM
- CCc1ccc(CCC(=O)Nc2ncc(Cc3ccccc3)s2)o1: > 100 µM
- N#Cc1nc(Cc2ccccc2)oc1N: > 100 µM
- CCCN(CCC)C(=O)Cc1c2n(c3ccccc13)Cc1ccccc1-2: > 100 µM
- Cc1ccc(N2C(=O)CC(=O)N(NC(=O)C(C)Oc3ccccc3C)C2=S)cc1 (configuration not stated): > 100 µM
- CC1=NN(C(=O)CC(=O)Nc2cccc(Cl)c2)C(=O)C1N=Nc1ccc(S(=O)(=O)c2ccc(N=NC3C(=O)N(C(=O)CC(=O)Nc4cccc(Cl)c4)N=C3C)cc2)cc1 (configuration not stated): > 100 µM
- Cc1ccc(C(=O)N/N=C/c2cccc(Oc3ccccc3)c2)cn1: > 100 µM
- OCC1CCCCN1Cc1nc2ccc(Cl)cc2[nH]1 (configuration not stated): > 100 µM
- COc1ccc(CN=C2Nc3ccncc3S(=O)(=O)N2c2ccccc2)cc1: > 100 µM
- COc1ccc(C(=O)c2cc(OC)c(OC)c(OC)c2)cc1O: > 100 µM
- Cn1c2ccc([N+](=O)[O-])cc2c(=O)c2c(O)cc(O)cc21: > 100 µM
- CC1(C)N=C(N)N=C(N)N1c1ccc(CCCCc2ccc(Cl)cc2Cl)cc1: 2.48 µM
- Cc1cccc(C[C@H](NC(=O)Nc2ccc(Cl)cc2F)C(=O)N[C@@H]2C(=O)N3C[C@H](O)C[C@H]3C(=O)N3CCCC[C@H]3C(=O)N[C@@H](C)C(=O)N3C[C@H](C)C[C@H]3C(=O)O[C@H]2C)c1 ({NH(4-Cl-2-F-phenyl)-CO}-[Phe(3-Me)][aThr][Hyp][Pip]A[Pro(4R-Me)]; ester 2-C): 2.46 µM
- CN(C)CCNC(=O)c1cc([N+](=O)[O-])ccn1: > 100 µM
- C[C@@H]1CCN(C(=O)CC#N)C[C@@H]1N(C)c1ncnc2[nH]ccc12: > 100 µM
- CCOC(=O)[C@@H](C)C[C@H](Cc1ccccc1)NC(=O)c1csc([C@@H](C[C@H](C(C)C)N(C)C(=O)[C@H](CCC(C)C)NC(=O)[C@H]2CCCCN2C)OC(C)=O)n1: 3.78 µM
- NNC(=O)CCCCCCCC(=O)O: > 100 µM
- OCCCN(CCc1ccc(Cl)c(Cl)c1)CCN1CCCC1: > 100 µM
- CC1=CC[C@H](C)C(C)(C)C1/C=C/C(C)=C/CC[C@@]1(CO)[C@H](CCCO)/C(=C(/C)C=O)CC[C@]1(C)O (some centres not stated): 13.5 µM
- CC(=O)O[C@@H]1CC(C)C2CC2C2=C(C(O)OC2O)[C@@H]1C(C)CCC=C(C)C (some centres not stated): 38.3 µM
- C/C(=N/NC(=S)N(Cc1ccccn1)Cc1ccccn1)c1cnccn1: > 33.1 µM
- Cc1c(C(=O)CC(=O)C(=O)Nc2cccc(C(F)(F)F)c2)[n+](=O)c2ccccc2n1[O-]: 8.5 µM
- CNC=O: > 10000 µM
- C=C(CN1CCN(c2ccccc2F)CC1)c1ccc(C(=O)Nc2ccccc2N)cc1: > 100 µM
- Clc1cc(Cl)cc(N2N=C(c3cccc(Nc4ccncc4)c3)CC2c2ccc(Br)cc2)c1 (configuration not stated): 3.51 µM
- CO/N=C1/NC(=O)/C(=C/c2ccc3ncccc3c2)S1: > 25 µM
- N#CSCC1CC(O)(c2ccccc2)C(c2ccccc2)C(c2ccc(F)cc2)O1 (configuration not stated): 18.1 µM
- O=S(=O)(O)Nc1ccc(-c2nc3ccccc3s2)cc1Cl: > 100 µM
- Cc1nn2c(/C=C3/C(=O)Nc4ccc(Cl)cc43)c(-c3ccccc3)nc2s1: 11.7 µM
- Cc1c(CN2CCC(Nc3ncnc4sc(CC(F)(F)F)cc34)CC2)ccc2c1cc(C#N)n2Cc1cn[nH]c1: 7.31 µM

All values here come from PubChem BioAssay (NCI).
